Data origin, for the record: BindingDB's records for doi:10.1016/0960-894X(96)00232-6

# procedureText: Inhibition of ET- 1 stimulated arachidonic acid release (AAR) in cultured rabbit renal vascular smooth muscle cells expressing the endothelin B receptor.
assayReadout: IC50 (nM)
Numbers only, in nM.

Sure, the documented IC50 for COc1cc2c(Sc3ccc4c(c3)OCO4)c(C(=O)O)n(Cc3ccc4c(c3)OCO4)c2cc1OCc1ccccc1 is 740
